- TARGET ENTITY: T1, recombinant human SOST (rhSOST) (human, UniProt Q9BQB4 24-213)
- T1 construct: Treated as one molecule; also called recombinant human SOST protein; human sclerostin
- T1 sequence: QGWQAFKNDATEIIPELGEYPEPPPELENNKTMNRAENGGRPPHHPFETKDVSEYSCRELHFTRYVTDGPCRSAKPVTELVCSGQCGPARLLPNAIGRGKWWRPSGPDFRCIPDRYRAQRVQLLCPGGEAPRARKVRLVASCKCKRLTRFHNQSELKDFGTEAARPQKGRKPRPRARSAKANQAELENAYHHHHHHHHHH
- PROCEDURE TEXT: SPR Biacore T200, IgG captured via anti-human Fc, rhSOST analyte, 37 C
Recorded measurements of kon, one per entry
Respond numerically; units are M⁻¹ s⁻¹ and should not be typed.

binder="DM17 (antibody, V domains shown, also called wt/mL6) VH: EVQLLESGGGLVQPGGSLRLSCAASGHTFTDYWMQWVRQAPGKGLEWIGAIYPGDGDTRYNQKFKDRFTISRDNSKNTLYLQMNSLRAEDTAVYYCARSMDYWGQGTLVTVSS VL: DIVMTQSPDSLAVSLGERATINCRASKTVDSYGNSFMHWFQQKPGQPPKLLIHHSSNLESGVPDRFSGSGSGTDFTLTISSLQAEDVAVYYCLQTIEDSYTFGQGTKLEIK" assay_result=4.7e+06

# next binder below
Prompt: # get_value(readout='kon', item= DM29 (antibody, V domains shown, also called mH10/mL2) VH: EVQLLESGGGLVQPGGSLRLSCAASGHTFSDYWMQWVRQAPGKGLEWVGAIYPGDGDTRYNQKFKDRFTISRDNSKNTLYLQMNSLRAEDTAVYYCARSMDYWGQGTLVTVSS VL: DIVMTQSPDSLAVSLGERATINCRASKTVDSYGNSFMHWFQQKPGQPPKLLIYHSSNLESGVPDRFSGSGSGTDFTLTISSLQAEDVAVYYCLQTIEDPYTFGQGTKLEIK )
Completion: 7.41e+06
